- TESTED_SYSTEM: Solute carrier family 12 member 5 (Homo sapiens) (UniProt Q9H2X9)
- Sequence (Q9H2X9 whole entry, looked up): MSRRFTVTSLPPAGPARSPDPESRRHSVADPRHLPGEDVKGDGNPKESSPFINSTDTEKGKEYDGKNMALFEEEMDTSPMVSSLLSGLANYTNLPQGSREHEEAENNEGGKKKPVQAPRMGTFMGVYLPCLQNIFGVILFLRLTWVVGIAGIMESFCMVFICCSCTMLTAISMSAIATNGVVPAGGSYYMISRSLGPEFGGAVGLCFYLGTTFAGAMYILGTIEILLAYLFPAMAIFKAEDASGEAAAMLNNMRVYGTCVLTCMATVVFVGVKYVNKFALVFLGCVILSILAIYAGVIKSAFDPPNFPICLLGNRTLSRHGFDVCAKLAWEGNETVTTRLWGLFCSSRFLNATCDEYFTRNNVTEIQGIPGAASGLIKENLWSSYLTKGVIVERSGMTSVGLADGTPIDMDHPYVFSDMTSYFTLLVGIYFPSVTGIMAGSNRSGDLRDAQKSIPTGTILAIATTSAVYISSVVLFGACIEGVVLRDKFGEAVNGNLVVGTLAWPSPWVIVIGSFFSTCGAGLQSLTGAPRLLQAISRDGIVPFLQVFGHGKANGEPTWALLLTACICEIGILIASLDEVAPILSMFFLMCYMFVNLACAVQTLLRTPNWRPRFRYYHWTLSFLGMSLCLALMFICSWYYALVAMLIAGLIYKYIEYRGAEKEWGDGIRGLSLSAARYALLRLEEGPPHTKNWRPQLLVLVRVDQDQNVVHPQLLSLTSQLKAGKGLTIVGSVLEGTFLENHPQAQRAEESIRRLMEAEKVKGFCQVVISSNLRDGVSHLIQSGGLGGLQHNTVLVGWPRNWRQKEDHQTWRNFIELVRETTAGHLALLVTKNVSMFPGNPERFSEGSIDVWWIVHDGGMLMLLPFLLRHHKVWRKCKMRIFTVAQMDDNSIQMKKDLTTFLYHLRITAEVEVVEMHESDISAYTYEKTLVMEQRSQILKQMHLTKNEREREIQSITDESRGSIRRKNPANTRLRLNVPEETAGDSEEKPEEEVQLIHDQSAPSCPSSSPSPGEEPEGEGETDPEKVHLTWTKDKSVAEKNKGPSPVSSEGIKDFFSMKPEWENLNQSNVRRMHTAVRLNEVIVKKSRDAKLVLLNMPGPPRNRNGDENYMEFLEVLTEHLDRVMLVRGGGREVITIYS
- EXPERIMENT_SUMMARY: modulation of human KCC2 ion transport – cell-based, HEK293 KCC2, FluoZin-2 fluorescence, MLSMR, primary screen (AID 1456);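 note: slope of fluorescence scaled to starting intensity during 10 to 20 s after thallium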
- STUDY_CONDITIONS: KCC2 cells, thallium flux FluoZin-2 fluorescence; at 10 µM
The whole screen tested about 190,000 compounds, of which about 4,100 (2.2%) were called active. What follows is part of a selection rich in actives, with near analogues and random picks from the rest.
We use -0.1 as the dividing line for B-score of Tl+ flux slope (higher = more flux/activation; lower = inhibition): on or above the line is condition met, below is condition not met.

- COMPOUND: "O=C(Nc1ccccc1)/C(=C/c1ccc([N+](=O)[O-])cc1)NC(=O)c1ccccc1"
  CLASS_LABEL: "condition met"
- COMPOUND: "Cc1cccc(OCc2ccc(C(=O)Nc3ccc(F)cc3)cc2)c1"
  CLASS_LABEL: "condition met"
- COMPOUND: "CNC(=O)/C(=C\\C=C\\c1ccccc1)NC(=O)c1ccc([N+](=O)[O-])cc1"
  CLASS_LABEL: "condition not met"
- COMPOUND: "Cc1cccc(NC(=O)CSc2nnc(CCNC(=O)OC(C)(C)C)o2)c1C"
  CLASS_LABEL: "condition not met"
- COMPOUND: "CC1CCCC(C)N1CCCNC(=O)c1cc2c(=O)n(C)c3ccccc3c2n1C (stereo unspecified)"
  CLASS_LABEL: "condition not met"
- COMPOUND: "O=C(Nc1ccc(C(=O)O)cc1)/C(=C/c1ccc([N+](=O)[O-])cc1)NC(=O)c1ccccc1"
  CLASS_LABEL: "condition not met"
- COMPOUND: "Fc1ccc(COc2ccc(-c3nnco3)cc2)cc1"
  CLASS_LABEL: "condition not met"
- COMPOUND: "CCc1ccc(CCC(=O)Nc2ccc(S(N)(=O)=O)cc2)o1"
  CLASS_LABEL: "condition met"
- COMPOUND: "CCC(C)N1C(=S)SC(C)(C)C1N(O)C(=O)NC1CCCCC1 (stereo unspecified)"
  CLASS_LABEL: "condition met"
- COMPOUND: "O=C(Cn1cnc2ccccc2c1=O)Nc1cccc(S(=O)(=O)N2CCCCC2)c1"
  CLASS_LABEL: "condition met"
- COMPOUND: "COc1ccc(/C=N/n2nnnc2N)cc1OC"
  CLASS_LABEL: "condition met"
- COMPOUND: "CC1(C)C=C2[C@H]3CC[C@@H]4[C@@]5(C)CCC(=O)C(C)(C)[C@@H]5CC[C@@]4(C)[C@]3(C)CC[C@@]2(C(=O)O)CC1"
  CLASS_LABEL: "condition met"
- COMPOUND: "COc1ccc(CCNS(=O)(=O)c2cccc3cccnc23)cc1OC"
  CLASS_LABEL: "condition not met"
- COMPOUND: "Cn1cc(S(=O)(=O)NC(c2ccccc2)c2ccccc2)c(=O)n(C)c1=O"
  CLASS_LABEL: "condition met"
- COMPOUND: "CC(Sc1nc2ccccc2c(=O)n1Cc1ccco1)C(=O)c1ccccc1 (stereo unspecified)"
  CLASS_LABEL: "condition not met"
- COMPOUND: "Cn1c(C(=O)NCCCN2CCN(c3cccc(Cl)c3)CC2)cc2c(=O)n(C)c3ccccc3c21"
  CLASS_LABEL: "condition met"
- COMPOUND: "Cn1c(C(=O)NCCc2ccsc2)cc2c(=O)n(C)c3ccccc3c21"
  CLASS_LABEL: "condition not met"
- COMPOUND: "O=C(CCCN1C(=O)/C(=C/c2ccccc2)SC1=S)Nc1ccc(O)cc1"
  CLASS_LABEL: "condition met"
- COMPOUND: "COc1cccc(NC(=O)C(Sc2nnnn2C)c2ccccc2)c1 (stereo unspecified)"
  CLASS_LABEL: "condition not met"
- COMPOUND: "CCOC(=O)c1ccc(NC(=O)CSc2ncccn2)cc1"
  CLASS_LABEL: "condition met"
- COMPOUND: "COc1ccc(CNC(=O)CCC(=O)Nc2nnc(C(C)C)s2)cc1"
  CLASS_LABEL: "condition met"
